- MEASURED ON: PAD3 (Homo sapiens, UniProt Q9ULW8)
- Construct: made in house
- Sequence (Q9ULW8 1-664): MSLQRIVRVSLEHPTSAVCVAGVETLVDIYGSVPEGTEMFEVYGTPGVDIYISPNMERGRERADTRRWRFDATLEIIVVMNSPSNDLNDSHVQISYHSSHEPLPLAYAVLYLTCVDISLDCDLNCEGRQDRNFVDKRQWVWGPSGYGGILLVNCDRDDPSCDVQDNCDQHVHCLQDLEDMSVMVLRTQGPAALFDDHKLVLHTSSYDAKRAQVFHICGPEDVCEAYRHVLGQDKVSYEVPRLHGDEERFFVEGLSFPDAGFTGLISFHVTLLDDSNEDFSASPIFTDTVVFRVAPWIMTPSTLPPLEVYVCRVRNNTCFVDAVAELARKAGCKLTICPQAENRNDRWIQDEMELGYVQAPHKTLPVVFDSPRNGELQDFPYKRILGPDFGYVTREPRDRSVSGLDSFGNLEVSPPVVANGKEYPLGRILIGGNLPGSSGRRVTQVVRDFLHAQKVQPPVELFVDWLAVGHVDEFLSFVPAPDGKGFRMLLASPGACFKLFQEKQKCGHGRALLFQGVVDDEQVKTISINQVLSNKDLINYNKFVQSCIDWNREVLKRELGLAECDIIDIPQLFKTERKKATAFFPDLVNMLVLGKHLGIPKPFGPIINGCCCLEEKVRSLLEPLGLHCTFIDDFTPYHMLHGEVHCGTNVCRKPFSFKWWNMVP
- ASSAY NOTES: Inactivation kinetics of PAD3 (COLDER citrulline assay)
- Type: biochemical
- CONDITION: marks: * nonlinear fit of kobs versus [I], ‡ linear fit, † single kobs, read-out: kinact/KI (converted)
READOUT KIND: kinact/KI (M⁻¹ s⁻¹)

1: COc1c(I)cc(I)cc1C(=O)NC(CCCNC(=N)CF)c1nc2ccccc2[nH]1 (centres unmarked) [Compound 3]
2: N=C(CF)NCCC[C@H](NC(=O)c1cc(Br)cc(Br)c1O)c1nc2ccccc2[nH]1 [Compound 11]
3: N=C(CF)NCCC[C@H](NC(=O)c1cc(I)cc(I)c1O)c1nc2ccccc2[nH]1 [Compound 1]
4: N=C(CCl)NCCC[C@H](NC(=O)c1ccccc1O)c1nc2ccccc2[nH]1 [Compound 8]
5: N=C(CF)NCCC[C@H](NC(=O)c1cc(I)c(F)c(I)c1O)c1nc2ccccc2[nH]1 [Compound 19]
INPUT: Sort the entries above by kinact/KI, largest first. When ranking, write the labels in the order the request describes.
OUTPUT: 4, 1, 5, 2, 3
(4: 176 M⁻¹ s⁻¹, 1: 36 M⁻¹ s⁻¹, 5: 11.7 M⁻¹ s⁻¹, 2: 7 M⁻¹ s⁻¹, 3: 3.33 M⁻¹ s⁻¹)

a: N=C(CF)NCCC[C@H](NC(=O)c1cc(Cl)cc(Cl)c1O)c1nc2ccccc2[nH]1 [Compound 13]
b: N=C(CF)NCCC[C@H](NC(=O)c1cc(I)cc(I)c1)c1nc2ccccc2[nH]1 [Compound 5]
INPUT: Between a and b , which one shows the larger kinact/KI value? Indicate which entry you chose by stating its label.
OUTPUT: b
(b: 41.2 M⁻¹ s⁻¹, a: 9.17 M⁻¹ s⁻¹)

* * *

- MEASURED ON: PAD3 (Homo sapiens)
READOUT KIND: pKi
The meaning of pKi here: minus log10 of the concentration in molar units.

INPUT: Lab request: please report pKi under test system PAD3 (Homo sapiens) for C#Cc1c(I)cc(C(=O)N[C@@H](CCCNC(=N)CCl)c2nc3ccccc3[nH]2)c(O)c1I
OUTPUT: 4.01

meta.source: patent US12448358B2
